These entries and their values trace back to a melting point compilation (Tetko et al.; mined from patent text by program, amines drawn as free bases though some values may be those of a salt).

Reported melting point values for the following molecules.

Example molecules with recorded melting point:
| molecule | melting point |
| --- | --- |
| COC(=O)Oc1c(OC)c(OC)c(OC(=O)OC)c2ccccc12 | 53 to 54 °C |
| COc1cc2c(cc1OC)C(=O)C(=O)N(CCCN(C)CCCSc1cc(Br)c(N)c(Br)c1)CC2 | 118 to 125 °C |
| N#C[C@H]1CC(F)(F)CN1C(=O)CNC1(CO)CCC2(CCOCC2)CC1 | 128 °C |
| CC1SC(=O)NN=C1c1ccc2c(c1)C(=NNC(=O)c1ccccn1)C(=O)N2 (stereo not given) | > 300 °C |
| CCOC(=O)C(O)=Cc1cc(CCc2ccc(F)cc2)ccn1 | 129 to 130 °C |

Exercise: Param item = COc1ccc(S(N)(=O)=O)cc1C1CO1 (stereo not given) ; retrieve measured melting point.
Key: 118 °C

Exercise: Param item = `CN(C)c1ccc(C2=NN(S(=O)(=O)c3ccc(I)cc3)CCC2)cc1` ; retrieve measured melting point.
Key: 203 to 205 °C

Exercise: Param item = `O=C(O)c1cc2c3c(c1)CCCC3CCC2` ; retrieve measured melting point.
Key: 208 to 209 °C

Exercise: Param item = COC(=O)C(C)Oc1ccc(Oc2ncc(Cl)cc2[N+](=O)[O-])cc1 (stereo not given) ; retrieve measured melting point.
Key: 91 to 92 °C

Exercise: Param item = `O=C(O)Cc1sc2nc3ncccc3n2c1-c1ccc(Cl)cc1` ; retrieve measured melting point.
Key: 250 to 252 °C
